meta.source: patent US6156754A

system: HT 29; assay: Growth inhibition (MTT) test, cytotoxic action on HT 29; type: cell-based, human; conditions: HT 29 cell line, growth checked after day 3 and day 6
pIC50: −log10 of the molar value. Counter-ions that a name gives are not always drawn.
quantity-kind: pIC50

CCC1(O)C(=O)OCc2c1cc1n(c2=O)Cc2c-1nc1cc3c(cc1c2CN1CCN(C(=O)[C@H](C)NC(=O)[C@H](CCCCN)NC(=S)Nc2ccc(O[C@H]4O[C@@H](C)[C@@H](O)[C@@H](OCC(=O)O)[C@@H]4O)cc2)CC1)OCCO3 (mixture of isomers) [Example 3.3, hydrochloride]: 10.00
CCC1(O)C(=O)OCc2c1cc1n(c2=O)Cc2c-1nc1cc3c(cc1c2CN1CCN(C(=O)[C@H](C)NC(=O)[C@H](CCCCNC(=S)Nc2ccc(O[C@H]4O[C@@H](C)[C@@H](O)[C@@H](OC)[C@@H]4O)cc2)NC(=S)Nc2ccc(O[C@H]4O[C@@H](C)[C@@H](O)[C@@H](OC)[C@@H]4O)cc2)CC1)OCCO3 (mixture of isomers): 10.22
CC[C@@]1(O)C(=O)OCc2c1cc1n(c2=O)Cc2c-1nc1ccccc1c2COC(=O)[C@H](C)NC(=O)[C@H](CCCCNC(=S)Nc1ccc(O[C@H]2O[C@@H](C)[C@@H](O)[C@@H](OC)[C@@H]2O)cc1)NC(=S)Nc1ccc(O[C@H]2O[C@@H](C)[C@@H](O)[C@@H](OC)[C@@H]2O)cc1: 10.60
CC[C@@]1(O)C(=O)OCc2c1cc1n(c2=O)Cc2c-1nc1ccccc1c2COC(=O)[C@@H](NC(=O)[C@H](CCCCN)NC(=S)Nc1ccc(O[C@H]2O[C@@H](C)[C@@H](O)[C@@H](OCC(=O)O)[C@@H]2O)cc1)C(C)C [Example 1.3, hydrochloride]: 10.52
CC[C@@]1(O)C(=O)OCc2c1cc1n(c2=O)Cc2cc3c(NC(=O)[C@H](C)NC(=O)[C@H](CCCCNC(=S)Nc4ccc(O[C@H]5O[C@@H](C)[C@@H](O)[C@@H](OC)[C@@H]5O)cc4)NC(=S)Nc4ccc(O[C@H]5O[C@@H](C)[C@@H](O)[C@@H](OC)[C@@H]5O)cc4)cccc3nc2-1: 10.22
CC[C@@]1(O)C(=O)OCc2c1cc1n(c2=O)Cc2c-1nc1ccccc1c2COC(=O)[C@@H](NC(=O)[C@H](CCCCN)NC(=S)Nc1ccc(O[C@H]2O[C@@H](C)[C@@H](O)[C@@H](OC)[C@@H]2O)cc1)C(C)C [Example 1.4, Hydrochloride]: 10.40
